Field log10(IC50): reported value for UniProt:P09874; entries drawn from several documents.
Sequence (P09874 whole entry): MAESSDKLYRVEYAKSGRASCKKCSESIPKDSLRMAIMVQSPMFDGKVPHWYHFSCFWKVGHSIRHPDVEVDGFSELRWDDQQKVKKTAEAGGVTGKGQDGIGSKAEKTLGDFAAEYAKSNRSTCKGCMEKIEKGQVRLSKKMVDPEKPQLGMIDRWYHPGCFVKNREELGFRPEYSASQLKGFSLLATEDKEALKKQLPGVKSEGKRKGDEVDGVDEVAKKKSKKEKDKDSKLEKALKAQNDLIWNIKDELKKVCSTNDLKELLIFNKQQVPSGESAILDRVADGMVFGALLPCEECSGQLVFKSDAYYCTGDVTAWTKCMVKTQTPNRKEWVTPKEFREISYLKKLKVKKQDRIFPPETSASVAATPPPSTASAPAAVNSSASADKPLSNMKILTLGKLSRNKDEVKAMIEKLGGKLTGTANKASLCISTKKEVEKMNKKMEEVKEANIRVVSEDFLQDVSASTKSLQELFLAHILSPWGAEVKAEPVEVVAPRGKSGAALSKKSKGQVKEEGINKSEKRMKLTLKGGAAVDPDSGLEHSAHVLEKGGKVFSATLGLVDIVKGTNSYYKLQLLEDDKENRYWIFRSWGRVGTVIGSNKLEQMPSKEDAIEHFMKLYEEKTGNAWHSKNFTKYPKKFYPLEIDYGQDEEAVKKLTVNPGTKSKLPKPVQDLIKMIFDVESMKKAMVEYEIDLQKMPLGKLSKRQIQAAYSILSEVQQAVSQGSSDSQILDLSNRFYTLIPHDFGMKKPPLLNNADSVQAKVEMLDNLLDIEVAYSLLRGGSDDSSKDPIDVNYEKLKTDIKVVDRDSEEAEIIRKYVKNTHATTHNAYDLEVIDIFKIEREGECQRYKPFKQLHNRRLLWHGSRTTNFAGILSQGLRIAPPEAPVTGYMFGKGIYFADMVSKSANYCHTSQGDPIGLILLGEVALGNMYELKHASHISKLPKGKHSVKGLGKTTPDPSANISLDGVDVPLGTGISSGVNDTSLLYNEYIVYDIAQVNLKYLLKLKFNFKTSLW
All values: log10 IC50 [nM].

Recorded log10(IC50), per entry:
COc1ccc(F)cc1-c1cc(C)ncc1C(=O)Nc1nnc(OC2CC3(CCN(C(=O)c4cc(Cc5n[nH]c(=O)c6ccccc56)ccc4F)CC3)C2)s1    0.67
NC(=O)c1cccc2[nH]c(-c3ccc(C(=O)NC4CCN(c5ccc(Cl)o5)C4)c(F)c3)nc12 (stereo unspecified)    0.64
COc1cc(/C=N/NC(N)=S)c(Br)c(Br)c1OC    1.63
COc1cc(-c2nc3c(C(N)=O)cccc3[nH]2)cc(Br)c1OC(=O)C(C)(C)C    1.52

List log10(IC50) for every entry below, keeping the order given.
1. Cn1cc(-c2ccc(=O)n(CCOc3ccnc4cc(N5CCC(NC(=O)c6cc(Cc7n[nH]c(=O)c8ccccc78)ccc6F)C5)ccc34)n2)cn1 (stereo unspecified)
2. NC(=O)c1cccc2[nH]c(-c3ccc(C(=O)NC4CCN(c5ccco5)C4)c(F)c3)nc12 (stereo unspecified)
3. O=c1[nH]nc2c3c(cccc13)Oc1ccc(CN3CCC(O)CC3)cc1-2
4. Cc1ccc(C(=O)N2CCN(C(=O)c3ccc(-c4nc5c(C(N)=O)cccc5[nH]4)cc3F)CC2C)o1 (stereo unspecified)
5. CC1CN(c2ccc3c(OCCn4nc(-c5cnn(C)c5)ccc4=O)ccnc3c2)CCN1C(=O)c1cc(Cc2n[nH]c(=O)c3ccccc23)ccc1F (racemic)
6. O=C(c1cc(Cc2n[nH]c(=O)c3ccccc23)ccc1F)N1CCN(c2ccc3c(OCCn4nc(N5CCOCC5)ccc4=O)ccnc3c2)CC1

*A*
[1.96, 0.95, 3.48, 0.76, 0.04, 0.85]

Provide log10(IC50) for all items below, preserving their order.
1. O=S(=O)(c1ccc(C(F)(F)F)cc1)N1C[C@@H]2CCCN3CCC[C@@H]([C@H]23)[C@H]1CCCc1nc2cc(Cl)ccc2n1S(=O)(=O)c1ccc(C(F)(F)F)cc1
2. Cn1cc(-c2ccc(=O)n(CCOc3ccnc4cc(NCCN5CCN(C(=O)c6cc(Cc7n[nH]c(=O)c8ccccc78)ccc6F)CC5)ccc34)n2)cn1
3. Cn1cc(-c2ccc(=O)n(CCOc3ccnc4cc(N5CCN(C(=O)c6cc(Cc7n[nH]c(=O)c8ccccc78)ccc6F)CC5)ccc34)n2)cn1
4. NC(=O)c1cccc2[nH]c(-c3ccc(C(=O)N4CCN(C(=O)c5ccccn5)CC4)cc3)nc12
5. Cn1cc(-c2ccc(=O)n(CCOc3ccnc4cc(N5CCC(NC(=O)c6cc(Cc7n[nH]c(=O)c8ccccc78)ccc6F)CC5)ccc34)n2)cn1
6. O=C(OCC1c2ccccc2-c2ccccc21)N1C[C@@H]2CCCN3CCC[C@@H]([C@H]23)[C@H]1CCCc1nc2cc(Cl)c(Cl)cc2[nH]1
7. O=C(CCC[C@@H]1[C@H]2CCCN3CCC[C@@H](CN1C(=O)OCC1c4ccccc4-c4ccccc41)[C@@H]23)Nc1nc2ccccc2[nH]1

*A*
1: 4.16; 2: 1.51; 3: -0.92; 4: 1.70; 5: 1.62; 6: 2.45; 7: 3.41

Below are some molecules; for each one, tell me its log10(IC50).
1. CCCCCCCCCCc1cc(CCC(N)(CO)CO)on1
2. Cc1ccc(S(=O)(=O)N2C[C@@H]3CCCN4CCC[C@@H]([C@H]34)[C@H]2CCCc2nc3ccc(Br)cc3n2S(=O)(=O)c2ccc(C)cc2)cc1
3. Cc1ccoc1C(=O)N1CCCN(C(=O)c2ccc(-c3nc4c(C(N)=O)cccc4[nH]3)cc2)CC1
4. COC1CCN(C(=O)c2cc(Cc3n[nH]c(=O)c4ccccc34)ccc2F)CC1
5. O=S(=O)(c1cccc2ccccc12)N1C[C@@H]2CCCN3CCC[C@@H]([C@H]23)[C@H]1CCCc1nc2cc(F)ccc2n1S(=O)(=O)c1cccc2ccccc12

*A*
1: 3.88; 2: 3.62; 3: 1.36; 4: 0.30; 5: 4.14

I need log10(IC50) for every entry listed below, if you could help.
1. NC(=O)c1cccc2[nH]c(-c3ccc(C(=O)N4CCN(C(=O)c5ccco5)CC4)c(F)c3)nc12
2. COc1cc(-c2nc3c(C(N)=O)cccc3[nH]2)cc(Br)c1OS(=O)(=O)c1c(C)cc(C)cc1C

*A*
[1.51, 1.53]
